Target: full-length RORγt in Jurkat cells (Homo sapiens (Human), UniProt P51449)
Sequence (P51449 other isoform, or with tags, fused parts or gaps): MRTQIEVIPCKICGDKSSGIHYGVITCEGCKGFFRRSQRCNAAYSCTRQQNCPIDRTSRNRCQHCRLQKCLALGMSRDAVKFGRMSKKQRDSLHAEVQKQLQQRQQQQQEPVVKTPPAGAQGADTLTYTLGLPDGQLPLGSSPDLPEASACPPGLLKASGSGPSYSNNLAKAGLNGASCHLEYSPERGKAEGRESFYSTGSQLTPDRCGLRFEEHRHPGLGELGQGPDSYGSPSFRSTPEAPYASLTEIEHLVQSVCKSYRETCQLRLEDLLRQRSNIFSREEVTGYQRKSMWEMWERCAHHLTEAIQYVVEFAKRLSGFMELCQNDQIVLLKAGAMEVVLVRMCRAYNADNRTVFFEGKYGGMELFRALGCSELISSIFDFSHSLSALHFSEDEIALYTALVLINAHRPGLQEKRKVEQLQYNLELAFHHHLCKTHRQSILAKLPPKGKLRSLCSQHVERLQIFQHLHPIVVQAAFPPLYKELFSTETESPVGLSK
Assay: RORγt 5×RORE Assay in Jurkat Cells (Assay 2)
Type: cell-based
Details: RORγt 5×RORE Nanoluc reporter
Protocol: [formula] RORγt 5×RORE Assay in Jurkat Cells (Assay 2) Compounds described herein were tested for RORγ inverse agonist activity in a cell-based, transcriptional activity assay. […] (Promega, Cat. # N1021) using KpnI and HindIII restriction sites. […] Luciferase activity in the conditioned supernatants was determined with NanoGlo® assay reagents (Promega, Cat.# N1130).
A collection of molecules and their measured IC50

Consider the following illustrative entries.
- CCS(=O)(=O)c1ccc(CNC(=O)c2cnc3c(c2)nc(Cc2ccc(C(F)(F)F)cc2)n3C2CC2)cc1: < 100 nM
- CCS(=O)(=O)c1ccc(CNC(=O)c2ccc3c(c2)nc(C[C@H]2CC[C@H](C(F)(F)F)CC2)n3CC(C)C)nc1: > 1000 nM
- CCS(=O)(=O)c1ccc(CNC(=O)c2ccc3c(c2)nc(CC2CCN(C(=O)OC(C)(C)C)CC2)n3C2CC2)cc1: 100 to 1000 nM

Challenge: Quote full-length RORγt in Jurkat cells (Homo sapiens (Human), UniProt P51449) IC50 for entry "CCn1c(Cc2ccc(C(F)(F)F)cc2)cc2cc(C(=O)N[C@@H](CO)c3ccc(S(=O)(=O)CC)cc3)ccc21" .
Response given: < 100 nM
